target: human GlyT1c transporter (Homo sapiens); construct: membranes); test: Radioligand binding assay using recombinant CHO cell membranes expressing human GlyT1; conditions: values given as upper bounds, read-out: radioligand binding Kiapp
Counter-ions that a name gives are not always drawn.
PARAMETER: Ki

compound="CCS(=O)(=O)NCc1ccc2c(c1)C(Cc1ccccc1)C(NC)CO2 (single isomer, unassigned; isomer 2)" result="≤ 100 nM"
compound="CN[C@@H]1COc2ccc(OCCNS(=O)(=O)c3cnn(C)c3)cc2[C@@H]1Cc1ccccc1 (relative stereo) [Example 1a, hydrochloride]" result="≤ 10 nM"

Return Ki measured with human GlyT1c transporter (Homo sapiens) given this compound: CCCS(=O)(=O)NCCOc1ccc2c(c1)[C@H](Cc1ccccc1)[C@H](N1CCC1)CO2 (relative stereo) ≤ 100 nM

* * *

target: human GlyT1c transporter (Homo sapiens); construct: membranes); test: Radioligand binding assay using recombinant CHO cell membranes expressing human GlyT1; conditions: values given as upper bounds, read-out: radioligand binding Kiapp
Where a name gives a salt, the structure may show the parent alone.
# key: entry, value: Ki

Some molecules with recorded Ki:
molecule="O=S(=O)(CC1CC1)NCc1ccc2c(c1)[C@H](Cc1ccccc1)[C@H](N1CCCC1)CO2 (relative stereo)" result="≤ 10 nM"
molecule="CN[C@@H]1COc2ccc(OCCNS(=O)(=O)c3cnn(C)c3)cc2[C@H]1Cc1ccccc1 (relative stereo) [Example 1b, hydrochloride]" result="≤ 10 nM"
molecule="Cc1ncc(S(=O)(=O)NCc2ccc3c(c2)C(Cc2ccccc2)C(N)CO3)n1C (stereo not shown) [Example 58, 2,2,2-trifluoroacetate]" result="≤ 1000 nM"
molecule="N[C@@H]1COc2ccc(CNS(=O)(=O)C3CCC3)cc2[C@@H]1Cc1ccccc1 (relative stereo)" result="≤ 100 nM"
molecule="Cn1cnc(S(=O)(=O)NCc2ccc3c(c2)[C@H](Cc2ccccc2)[C@H](N)CO3)c1 (relative stereo)" result="≤ 10 nM"

Request: Ki, test system human GlyT1c transporter (Homo sapiens), entry CN[C@@H]1COc2ccc(OCCNS(=O)(=O)c3cn(C)cn3)cc2[C@H]1Cc1ccccc1 (relative stereo) ≤ 10 nM

* * *

Biological target: human GlyT1c transporter (Homo sapiens)
Construct: membranes)
Test: Radioligand binding assay using recombinant CHO cell membranes expressing human GlyT1
Settings: values given as upper bounds, read-out: radioligand binding Kiapp
Method: 2. Radioligand Binding Assays Using Recombinant CHO Cell Membranes Expressing Human GlyT1: Radioligand binding to human GlyT1c transporter-expressing membranes was determined as described in Mezler et al., Molecular Pharmacology 74:1705-1715, 2008.
PARAMETER: Ki

compound="CN[C@@H]1COc2ccc(CNS(C)(=O)=O)cc2[C@H]1Cc1ccccc1 (relative stereo)" result="≤ 1000 nM"
compound="NC1COc2ccc(CNS(=O)(=O)c3ccsc3)cc2C1Cc1ccccc1 (stereo not drawn) [Example 49, 2,2,2-trifluoroacetate]" result="≤ 1000 nM"

Suppose we examine the compound CC1CCCN(S(=O)(=O)NCc2ccc3c(c2)C(Cc2ccccc2)C(N)CO3)C1 (stereo not drawn) [Example 43, 2,2,2-trifluoroacetate] ; what Ki value has been reported? ≤ 1000 nM

* * *

Target: human GlyT1c transporter (Homo sapiens)
Construct: membranes)
Sequence (P48067 1-706): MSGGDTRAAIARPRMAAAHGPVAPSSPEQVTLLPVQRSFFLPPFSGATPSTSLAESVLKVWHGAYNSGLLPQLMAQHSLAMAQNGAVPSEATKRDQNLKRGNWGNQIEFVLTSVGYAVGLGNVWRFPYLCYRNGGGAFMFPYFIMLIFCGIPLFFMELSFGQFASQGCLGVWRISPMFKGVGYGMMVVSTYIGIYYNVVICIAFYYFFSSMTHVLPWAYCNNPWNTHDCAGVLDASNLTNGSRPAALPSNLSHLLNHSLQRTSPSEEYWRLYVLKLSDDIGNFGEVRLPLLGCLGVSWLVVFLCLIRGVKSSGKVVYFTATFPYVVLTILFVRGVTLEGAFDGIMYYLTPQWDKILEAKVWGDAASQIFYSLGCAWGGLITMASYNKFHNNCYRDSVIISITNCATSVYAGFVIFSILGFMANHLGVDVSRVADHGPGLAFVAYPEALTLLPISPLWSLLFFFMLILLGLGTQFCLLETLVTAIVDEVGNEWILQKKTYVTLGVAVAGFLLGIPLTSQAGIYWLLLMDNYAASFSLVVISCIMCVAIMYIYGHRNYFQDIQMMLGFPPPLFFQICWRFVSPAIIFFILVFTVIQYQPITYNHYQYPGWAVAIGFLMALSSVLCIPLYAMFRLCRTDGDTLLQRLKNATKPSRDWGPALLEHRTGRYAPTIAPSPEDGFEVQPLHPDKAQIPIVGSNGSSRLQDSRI
Test: Radioligand binding assay using recombinant CHO cell membranes expressing human GlyT1
Conditions: values given as upper bounds, read-out: radioligand binding Kiapp
PARAMETER: Ki

Below: 3 molecules and their reported Ki.
molecule="CCCS(=O)(=O)NCCOc1ccc2c(c1)[C@@H](Cc1ccccc1)[C@H](NC)CO2 (relative stereo)" target_of_assay="human GlyT1c transporter (Homo sapiens)" parameter=Ki result="≤ 1 µM"
molecule="CN[C@@H]1COc2ccc(OCCNS(=O)(=O)CC3CC3)cc2[C@@H]1Cc1ccccc1 (relative stereo)" target_of_assay="human GlyT1c transporter (Homo sapiens)" parameter=Ki result="≤ 0.01 µM"
molecule="CCS(=O)(=O)NCCOc1cc2c(cc1F)OC[C@@H](NC)[C@@H]2Cc1ccccc1 (relative stereo)" target_of_assay="human GlyT1c transporter (Homo sapiens)" parameter=Ki result="≤ 1 µM"

Now, please, on to the next molecule.
Find the recorded Ki belonging to CN[C@@H]1COc2ccc(CNS(=O)(=O)c3cnn(C)c3)cc2[C@H]1Cc1ccccc1 (relative stereo) and report it. ≤ 0.01 µM

Source of measurements: patent US8853196B2
